- System: RPMI-8226 leukemia
- Measurement Protocol: NCI tumour cell line growth inhibition, 48 h
Assign TGI to each entry below.
One number for each entry, in µM.

Smiles Data	Unit Descriptor	TGI
O=C(/C=C/c1ccncc1)c1cc(Cl)ccc1O	µM	5.25
O=C(CCc1nnc2sc(-c3ccc(Cl)cc3Cl)nn12)c1nc2ncccc2[nH]1	µM	7.59
O=C(/C=C\c1ccc(Cl)c(Cl)c1)c1ccc(Cl)cc1Cl	µM	41.4
Cn1cnc([N+](=O)[O-])c1S(=O)(=O)Oc1cccc2ccccc12	µM	6.69
Fc1cc2[nH]ncc2c2c3c(c(-c4cn[nH]c4)nc12)CCCC3	µM	13.6

Below: the item to evaluate.
Given CN(C)c1ccc(C(=N/N=C2\C(=O)Nc3ccccc32)c2ccc(N(C)C)cc2)cc1 , state its recorded TGI.
3.46
